- Tested on: SF-539 CNS
- PROTOCOL_SUMMARY: NCI tumour cell line growth inhibition, 48 h
Exercise: for every item that follows, state its recorded GI50.

Example compounds with recorded GI50:
1. CC(=O)Oc1cc2c(cc1OC(C)=O)[C@H]1CC[C@]3(C)[C@@H](OC(C)=O)CC[C@H]3[C@@H]1CC2 ... 3530 nM
2. COc1cc(C(=O)c2cc3c(cc2C)OCO3)cc(OC)c1OC ... 61.7 nM
3. COC1=CC(c2ccc[nH]2)=N/C1=C\c1[nH]c(C)c(C(=O)CCCCC(=O)Nc2ccccc2)c1C ... 3780 nM
4. COC(=O)C1=C(C(=O)OC)C23C=C(C)C1C2=C(C)C1(CC1)[C@@](C)(O)C3=O (stereo not given in full) ... 337 nM

Each of the following entries comes with a recorded value; kindly state GI50 for each.
1. COc1cc(/C=C2\COc3ccc(O)c(O)c3C2=O)cc(OC)c1
2. N.N.NCCCCN.O=C([O-])C1(C(=O)[O-])CCC1.O=C([O-])C1(C(=O)[O-])CCC1.[Pt+4].[Pt+4]
3. COc1cc2nc(Nc3cccc(F)c3)nc(Nc3cc(C)[nH]n3)c2cc1OC
4. NS(=O)(=O)c1ccc(CCN=C=S)cc1
5. CCOC(=O)c1c(C(F)(F)F)n([O-])c2ccc(OC)cc2[n+]1=O
6. COc1ccccc1CNCCCN1C(=O)c2ccc3c4c(ccc(c24)C1=O)C(=O)N(CCCNCCCN)C3=O

result:
1: 1840 nM; 2: > 100000 nM; 3: 1780 nM; 4: 1870 nM; 5: 7970 nM; 6: 968 nM
